- Method Description: Aqueous solubility
- Format: physicochemical
- Test Parameters: aqueous medium, pH 6.3, aqueous buffer

# Smiles, solubility
rows = [
    ("COc1cc2ncnc(Nc3ccc(F)c(Cl)c3)c2cc1NC(=O)/C=C/CN1CCCCC1", "~10 µg/mL"),
]

###

- Target Of Assay: ErbB1 (Homo sapiens (Human), UniProt P00533)
- Sequence (P00533 668-1210 limits assumed): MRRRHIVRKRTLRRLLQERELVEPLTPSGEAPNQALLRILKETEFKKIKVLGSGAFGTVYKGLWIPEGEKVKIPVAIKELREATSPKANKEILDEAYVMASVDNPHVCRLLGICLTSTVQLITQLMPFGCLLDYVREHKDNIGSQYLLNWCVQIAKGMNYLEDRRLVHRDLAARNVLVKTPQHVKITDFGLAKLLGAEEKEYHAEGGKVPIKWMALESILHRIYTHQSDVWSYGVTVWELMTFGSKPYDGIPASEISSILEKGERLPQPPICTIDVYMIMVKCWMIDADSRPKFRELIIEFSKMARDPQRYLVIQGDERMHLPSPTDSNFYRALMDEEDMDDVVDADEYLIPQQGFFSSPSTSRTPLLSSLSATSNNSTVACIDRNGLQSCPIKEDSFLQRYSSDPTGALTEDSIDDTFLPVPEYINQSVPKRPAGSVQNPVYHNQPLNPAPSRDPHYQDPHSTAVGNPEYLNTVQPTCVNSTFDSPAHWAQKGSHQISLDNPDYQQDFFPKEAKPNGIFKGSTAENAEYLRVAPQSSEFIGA
- Method Description: ELISA-based erbB kinase assay (ErbB1)
- Test Parameters: GST-erbB1 cytoplasmic fusion protein, 20 uM ATP, poly-Glu-Tyr substrate

# Compound, IC50, nM
measured = [
    ("O=C(/C=C/CN1CCCCC1)Nc1cc2c(Nc3ccc(F)c(Cl)c3)ncnc2cc1OCCCN1CCOCC1", 11.3),
    ("COc1cc2ncnc(Nc3ccc(F)c(Cl)c3)c2cc1NC(=O)/C=C/CN1CCCC(F)C1 (centres unmarked)", 45.3),
    ("COc1cc2ncnc(Nc3ccc(F)c(Cl)c3)c2cc1NC(=O)/C=C/CN1CCCCCC1", 12.1),
    ("O=C(/C=C/CN1CCCCC1)Nc1cc2c(Nc3ccc(F)c(Cl)c3)ncnc2cc1OCC(F)F", 9.87),
    ("O=C(/C=C/CN1CCCCC1)Nc1cc2c(Nc3ccc(F)c(Cl)c3)ncnc2cc1OCCF", 6.44),
]

###

- Target Of Assay: ErbB2 (Homo sapiens (Human))
- Sequence (P04626 675-1255 limits assumed): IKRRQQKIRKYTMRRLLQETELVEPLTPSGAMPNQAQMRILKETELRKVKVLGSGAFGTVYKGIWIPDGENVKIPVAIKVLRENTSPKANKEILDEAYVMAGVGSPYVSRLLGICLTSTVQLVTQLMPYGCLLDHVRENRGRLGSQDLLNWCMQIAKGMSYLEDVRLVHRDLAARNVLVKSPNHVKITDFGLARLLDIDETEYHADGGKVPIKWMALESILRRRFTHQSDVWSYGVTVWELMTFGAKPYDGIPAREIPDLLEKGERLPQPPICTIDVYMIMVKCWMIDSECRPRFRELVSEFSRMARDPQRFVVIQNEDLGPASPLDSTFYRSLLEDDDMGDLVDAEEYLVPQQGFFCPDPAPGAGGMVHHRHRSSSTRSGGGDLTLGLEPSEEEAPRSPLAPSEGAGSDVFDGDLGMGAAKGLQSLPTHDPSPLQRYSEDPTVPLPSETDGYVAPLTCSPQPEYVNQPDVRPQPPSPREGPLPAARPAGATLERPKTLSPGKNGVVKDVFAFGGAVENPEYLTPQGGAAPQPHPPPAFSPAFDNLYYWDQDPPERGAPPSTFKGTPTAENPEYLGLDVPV
- Method Description: ELISA-based erbB kinase assay (ErbB2)
- Test Parameters: GST-erbB2 cytoplasmic fusion protein, 20 uM ATP, poly-Glu-Tyr substrate
Property Measured: IC50 (nM)

# Compound, Value Reported
data = [
    ("COc1cc2ncnc(Nc3ccc(F)c(Cl)c3)c2cc1NC(=O)/C=C/CN1CCC(F)CC1 [Example No. 9]", 247),
    ("COc1cc2ncnc(Nc3ccc(F)c(Cl)c3)c2cc1NC(=O)/C=C/CN1CCCC(F)C1 (stereo not shown) [Example No. 8]", 212),
    ("COc1cc2ncnc(Nc3ccc(F)c(Cl)c3)c2cc1NC(=O)/C=C/CN1CCCCCC1 [Example No. 10]", 86),
    ("O=C(/C=C/CN1CCCCC1)Nc1cc2c(Nc3ccc(F)c(Cl)c3)ncnc2cc1OCC(F)F [Example No. 6]", 244),
]
